Hey, just so you know, these numbers are from PubChem BioAssay (NCI).

# PROTOCOL DETAILS: NCI Yeast Anticancer Drug Screen. Data for the mlh1 rad18 strain (AID 175)
# EXPERIMENTAL SETUP: S. cerevisiae mlh1 rad18 strain growth inhibition; at 5.0 µM (retest, dose inferred, filed as 0.5); active compounds read high
Compounds without any hit were thinned out: in the full panel of roughly 79,000, 15% have a hit.
Short version: growth inhibition at least 40% is fulfilled, less is not fulfilled.

Asked: Confirm if growth inhibition reported for the compound `CCOC(=O)COc1cc(-c2ccccc2F)nc2cc3c(cc12)OCO3` is 40% or above.
Given back: not fulfilled

Asked: Confirm if growth inhibition reported for the compound `CCCC[n+]1c(/C=C\c2c(OC)cc(OC)cc2OC)ccc2ccccc21` is 40% or above.
Given back: fulfilled

Asked: Confirm if growth inhibition reported for the compound CCC1C[N+]2=C(c3cc(OC)c(OC)cc3CC2)c2c1cc1n2CCc2cc(OC)c(OC)cc2-1 (stereo not drawn) is 40% or above.
Given back: fulfilled

Asked: Confirm if growth inhibition reported for the compound `C=CC(=O)OCCOCc1ccccc1` is 40% or above.
Given back: not fulfilled

Asked: Confirm if growth inhibition reported for the compound `CN(C)c1ccc(/C=C/c2sc3ccc4ccccc4c3[n+]2C)cc1` is 40% or above.
Given back: fulfilled

Asked: Confirm if growth inhibition reported for the compound `O=C(C[P+](c1ccccc1)(c1ccccc1)c1ccccc1)c1ccccc1` is 40% or above.
Given back: not fulfilled

Asked: Confirm if growth inhibition reported for the compound `CNc1ncnc2nc(C)[nH]c12` is 40% or above.
Given back: not fulfilled

Asked: Confirm if growth inhibition reported for the compound `NC1=C(Br)C(=O)c2ncccc2C1=O` is 40% or above.
Given back: fulfilled
